Hey, just so you know, these numbers are from ChEMBL document CHEMBL1201862.

System: HCT-116
Test Name: NCI tumour cell line growth inhibition, 48 h
The source made the active and inactive calls. No stated cut-off is given here; in the data, active = GI50 up to about 1.1 µM and inactive = higher.
Outcome codes: active, inactive

[
  {
    "Compound": "COc1cc(C2S/C(=C/c3ccccc3)C(=O)N2c2cc(Cl)c(Cl)cc2Cl)cc(OC)c1OC (stereo not given)",
    "Label Value": "inactive"
  },
  {
    "Compound": "CCN1/C(=C/C(C)=C/c2sc3ccccc3[n+]2CC)Sc2ccccc21",
    "Label Value": "active"
  },
  {
    "Compound": "O=C(Nc1nnc(S)[nH]1)C(=O)C(C(=O)c1ccc2ccccc2c1)C1OC(=O)c2ccccc21 (stereo not given)",
    "Label Value": "inactive"
  },
  {
    "Compound": "CC(C)=NN/C(=N\\c1ccc(Cl)cc1)NS(=O)(=O)c1ccc(C)cc1",
    "Label Value": "inactive"
  },
  {
    "Compound": "COC(=O)/C=C(\\S/C(=N\\n1cc(C(=O)OC)c(C(=O)OC)c1-c1ccc(C)cc1)c1ccc(C)cc1)C(=O)OC",
    "Label Value": "inactive"
  },
  {
    "Compound": "CCOC(=O)[C@]12C(=C(c3ccccc3)O[C@H]3C=CCC[C@H]31)C(=O)C(=O)N2c1ccccc1",
    "Label Value": "inactive"
  },
  {
    "Compound": "CN[C@@H]1C[C@H]2O[C@@](C)([C@@H]1OC)n1c3ccccc3c3c4c(c5c6ccccc6n2c5c31)C(=O)N[C@@H]4O",
    "Label Value": "active"
  },
  {
    "Compound": "Clc1cccc(/C=N/C23CC4CC(CC(C4)C2)C3)c1Cl",
    "Label Value": "inactive"
  },
  {
    "Compound": "C=C(C)[C@@H]1CC[C@]2(C(=O)O)CC[C@]3(C)[C@H](CC[C@@H]4[C@@]5(C)CC[C@H](O)C(C)(C)[C@@H]5CC[C@]43C)[C@@H]12",
    "Label Value": "inactive"
  },
  {
    "Compound": "O[C@H]1[C@H](O)[C@@H](O)[C@H](O)[C@@H](O)[C@H]1O",
    "Label Value": "inactive"
  }
]
